Origin of the recorded values: PubChem BioAssay (NCI)

Experiment: NCI Yeast Anticancer Drug Screen. Data for the mec2-1 strain (AID 157)
Settings: S. cerevisiae mec2-1 strain, at 50.0 µM, hits give high values
This is part of a sample that, as a whole, favours compounds with a hit. Of some 79,000 tested, about 15% had one in any assay.
Let's look at some compounds and their measured growth inhibition.
Use % as the unit, but write only the number.

Some compounds with recorded growth inhibition:
C=CCNc1ccc(C)cc1	-8.15
Nc1cc2cn[nH]c2cc1N	4.75
CCCCC(CC)(SC(CC)C(N)=O)C(N)=O (stereo not drawn)	-0.55
CNC(=O)CCCCC(=O)NC	-7.9
O=c1[nH]cnc2c1ncn2C1CCC(CO)O1 (stereo not drawn)	14.6
CC1(C)N=C(C(N)=O)c2ncn(CCO)c2N1	-34

Query :: What measured growth inhibition goes with C/C(=N\NC(=S)Nc1cccc2cccc(S(=O)(=O)O)c12)c1ccccn1 ?
Result :: -0.35
